species on record: Rattus norvegicus; test: Induction of pressor activity in nephrectomized, pentolinium-treated rat model relative to angiotensin 2; type: organism-based; conditions: in vivo
Peptide text beside a SMILES is read from it.
Test Readout: Activity (%)

Observe how each entry below is paired with its result.
Compound	Unit Abbrev	Activity
CC[C@H](C)[C@H](NC(=O)[C@H](Cc1ccc(O)cc1)NC(=O)[C@@H](NC(=O)[C@@H](C)N)C(C)C)C(=O)N[C@@H](Cc1cnc[nH]1)C(=O)N1CCC[C@H]1C(=O)N[C@@H](CC(C)C)C(=O)O	%	1.4
CCCC[C@H](NC(=O)[C@@H]1CCCN1C(=O)[C@H](Cc1cnc[nH]1)NC(=O)[C@@H](NC(=O)[C@H](Cc1ccc(O)cc1)NC(=O)[C@@H](NC(=O)[C@H](CCCNC(=N)N)NC(=O)[C@@H](N)CC(N)=O)C(C)C)[C@@H](C)CC)C(=O)O (HELM PEPTIDE1{N.R.V.Y.I.H.P.[Nle]}$$$$V2.0)	%	7.3
CC[C@H](C)[C@H](NC(=O)[C@H](Cc1ccc(O)cc1)NC(=O)[C@@H](NC(=O)[C@H](CCCNC(=N)N)NC(=O)[C@@H](N)CC(N)=O)C(C)C)C(=O)N[C@@H](Cc1cnc[nH]1)C(=O)N1CCC[C@H]1C(=O)NC1(C(=O)O)Cc2ccccc2C1 (HELM PEPTIDE1{N.R.V.Y.I.H.P.[O=C(O)C1(N[*:1])Cc2ccccc2C1]}$$$$V2.0)	%	0.1

(I) CC[C@H](C)[C@H](NC(=O)[C@H](Cc1ccc(O)cc1)NC(=O)[C@@H](NC(=O)[C@H](CCCN=C(N)N)NC(=O)[C@@H](N)CC(=O)O)C(C)C)C(=O)N[C@@H](Cc1c[nH]cn1)C(=O)N1CCC[C@H]1C(=O)N[C@@H](Cc1ccc(Br)cc1)C(=O)O
(II) CCCC[C@H](NC(=O)[C@@H]1CCCN1C(=O)[C@H](Cc1c[nH]cn1)NC(=O)[C@@H](NC(=O)[C@H](Cc1ccc(O)cc1)NC(=O)[C@@H](NC(=O)[C@H](CCCNC(=N)N)NC(=O)[C@@H](N)CC(=O)O)C(C)C)[C@@H](C)CC)C(=O)O
(III) CC[C@H](C)[C@H](NC(=O)[C@H](Cc1ccc(O)cc1)NC(=O)[C@@H](NC(=O)[C@H](CCCNC(=N)N)NC(=O)[C@@H](N)CC(=O)O)C(C)C)C(=O)N[C@@H](Cc1c[nH]cn1)C(=O)N1CCC[C@H]1C(=O)N[C@@H](Cc1ccc(F)cc1)C(=O)O
Problem: Rank by Activity (largest to smallest). Please list the labels according to the requested order.
Result: III, I, II

----------
species on record: Rattus norvegicus; experiment: Induction of pressor activity in nephrectomized, pentolinium-treated rat model relative to angiotensin 2; format: organism-based; conditions: in vivo
Peptide text beside a SMILES is read from it.
# Activity values compiled below
Report as a plain number; the unit % is understood.

Compound	Activity, %
CC[C@H](C)[C@H](NC(=O)[C@H](Cc1ccc(O)cc1)NC(=O)[C@@H](NC(=O)[C@H](CCCNC(=N)N)NC(=O)CNC)C(C)C)C(=O)N[C@@H](Cc1cnc[nH]1)C(=O)N1CCC[C@H]1C(=O)N[C@@H](CC(C)C)C(=O)O (HELM PEPTIDE1{[Sar].R.V.Y.I.H.P.L}$$$$V2.0)	2.5

# ---- query compound ----
Problem: Using known records, supply Activity for CC[C@H](C)[C@H](NC(=O)[C@H](Cc1ccc(O)cc1)NC(=O)[C@@H](NC(=O)[C@H](CCCNC(=N)N)NC(=O)[C@@H](N)CC(=O)O)C(C)C)C(=O)N[C@@H](Cc1c[nH]cn1)C(=O)N1CCC[C@H]1C(=O)N[C@@H](Cc1ccc(OC)cc1)C(=O)O
Result: 33

----------
species on record: Rattus norvegicus; assay: Induction of pressor activity in nephrectomized, pentolinium-treated rat model relative to angiotensin 2; type: organism-based; conditions: in vivo
Peptide text beside a SMILES is read from it.
# Activity annotations
# unit: % | format: bare number

Molecule	Unit Abbrev	Activity
CC[C@H](C)[C@H](NC(=O)[C@H](Cc1ccc(O)cc1)NC(=O)[C@@H](NC(=O)[C@H](CCCNC(=N)N)NC(=O)[C@@H](N)CC(N)=O)C(C)C)C(=O)N[C@@H](Cc1cnc[nH]1)C(=O)N1CCC[C@H]1C(=O)N[C@@H](Cc1ccc([N+](=O)[O-])cc1)C(=O)O (HELM PEPTIDE1{N.R.V.Y.I.H.P.[O=C(O)[C@H](Cc1ccc([N+](=O)[O-])cc1)N[*:1]]}$$$$V2.0)	%	15
CC[C@H](C)[C@H](NC(=O)[C@H](Cc1ccc(O)cc1)NC(=O)[C@@H](NC(=O)[C@H](CCCNC(=N)N)NC(=O)[C@@H](N)CC(=O)O)C(C)C)C(=O)N[C@@H](Cc1c[nH]cn1)C(=O)N1CCC[C@H]1C(=O)N[C@@H](CC1CCCCC1)C(=O)O	%	20
CC[C@H](C)[C@H](NC(=O)[C@H](Cc1ccc(O)c(Cc2ccccc2)c1)NC(=O)[C@@H](NC(=O)[C@H](CCCNC(=N)N)NC(=O)[C@@H](N)CC(N)=O)C(C)C)C(=O)N[C@@H](Cc1cnc[nH]1)C(=O)N1CCC[C@H]1C(=O)N[C@@H](Cc1ccc([N+](=O)[O-])cc1)C(=O)O (HELM PEPTIDE1{N.R.V.[O=C([C@H](Cc1ccc(O)c(Cc2ccccc2)c1)N[*:1])[*:2]].I.H.P.[O=C(O)[C@H](Cc1ccc([N+](=O)[O-])cc1)N[*:1]]}$$$$V2.0)	%	0.16

Attention now turns to another entry.
Problem: Fill in Activity for record CC[C@H](C)[C@H](NC(=O)[C@H](Cc1ccc(O)cc1)NC(=O)[C@@H](NC(=O)[C@H](CCCNC(=N)N)NC(=O)[C@@H](N)CC(N)=O)C(C)C)C(=O)N[C@@H](Cc1cnc[nH]1)C(=O)N1CCC[C@H]1C(=O)N[C@@H](Cc1ccc(N)cc1)C(=O)O (HELM PEPTIDE1{N.R.V.Y.I.H.P.[Nc1ccc(C[C@H](N[*:1])C(=O)O)cc1]}$$$$V2.0)
Result: 52.5

----------
species on record: Rattus norvegicus; assay: Induction of pressor activity in nephrectomized, pentolinium-treated rat model relative to angiotensin 2; type: organism-based; conditions: in vivo
Test Readout: Activity (%)

Substance	Activity (%)
H-NRVYVHPF-OH [ANGIOTENSIN AMIDE]	100

(A) H-DRVYIHPY-OH
(B) H-NRVYIHPL-OH
(C) H-DRVYIHPV-OH
Problem: Rank by Activity (largest to smallest). Sort and list the labels as requested.
Result: A, B, C
(A: 83%, B: 1.2%, C: 0.5%)

Values were extracted from ChEMBL document CHEMBL3244061.
